# pKi per entry
# TARGET_OR_SYSTEM: serotonin 1A receptor (Rattus norvegicus, UniProt P19327)
pKi: −log10 of the molar value. Counter-ions that a name gives are not always drawn.
ENDPOINT_NAME: pKi

>>> measured_result("c1csc(CCN2CCC(N3CCc4ccccc43)CC2)c1")
7.58
>>> measured_result("COc1ccc2c(c1)C(N1CCN(CCc3ccc(F)cc3)CC1)CCCC2 (stereo not drawn)")
7.23
>>> measured_result("O=S(=O)(NCCN1CCC(N2CCc3ccccc32)CC1)c1ccc(Cl)cc1")
6.69
>>> measured_result("O=C(CF)NCc1ccc2ccn(C3CCN(CCc4ccc(F)cc4)CC3)c2c1")
9.32
>>> measured_result("CC(=O)NCc1ccc2c(c1)N(C1CCN(CCc3ccc(F)cc3)CC1)CC2")
8.43
>>> measured_result("CCC(=O)NCc1ccc2ccn(C3CCN(CCc4ccccc4F)CC3)c2c1")
8.54
>>> measured_result("O=C(O)Cc1ccc2c(c1)N(C1CCN(CCc3ccc(F)cc3)CC1)CC2")
6.79
>>> measured_result("c1ccc2c(c1)CCN2C1CCN(CCc2c[nH]c3ccccc23)CC1")
8.21
>>> measured_result("CC(=O)N1CCC(Cc2ccc3c(c2)N(C2CCN(CCc4ccc(F)cc4)CC2)CC3)CC1")
8.42
>>> measured_result("O=C(Cc1ccc2ccn(C3CCN(CCc4ccc(F)cc4)CC3)c2c1)NCCN1CCCC1 [Example 312, Oxalate]")
8.08
>>> measured_result("OC1(c2ccc3c(c2)N(C2CCN(CCc4ccc(F)cc4)CC2)CC3)CCCC1")
8.52
>>> measured_result("OCc1cncc(CCN2CCC(N3CCc4ccccc43)CC2)c1")
7.68
>>> measured_result("Fc1ccc(CCN2CCC(N3CCc4ccc(Cc5nccs5)cc43)CC2)cc1")
8.46
>>> measured_result("CN(c1ccc2ccn(C3CCN(CCc4ccc(F)cc4)CC3)c2c1)S(C)(=O)=O")
9.66

----------
# TARGET_OR_SYSTEM: UniProtKB P14842
# Sequence (P14842 whole entry): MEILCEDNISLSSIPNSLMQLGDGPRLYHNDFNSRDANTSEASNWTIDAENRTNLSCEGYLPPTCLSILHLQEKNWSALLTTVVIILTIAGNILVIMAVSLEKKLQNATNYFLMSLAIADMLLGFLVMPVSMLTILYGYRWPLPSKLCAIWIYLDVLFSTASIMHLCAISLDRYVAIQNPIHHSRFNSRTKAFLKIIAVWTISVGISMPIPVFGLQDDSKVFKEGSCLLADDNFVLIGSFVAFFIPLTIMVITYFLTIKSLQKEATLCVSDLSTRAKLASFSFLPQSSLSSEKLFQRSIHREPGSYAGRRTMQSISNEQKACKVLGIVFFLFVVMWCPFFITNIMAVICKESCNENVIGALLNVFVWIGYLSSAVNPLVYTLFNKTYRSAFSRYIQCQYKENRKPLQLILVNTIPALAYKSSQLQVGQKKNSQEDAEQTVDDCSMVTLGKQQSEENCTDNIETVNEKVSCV
# TEST_PROTOCOL: Binding test on [3H] ketanserin (serotonin 2 receptor)
# SETTINGS: [3H] ketanserin 0.3 nM, receptor fraction of rat cerebral cortex; read-out: 5HT2
pKi: −log10 of the molar value.
ENDPOINT_NAME: pKi

>>> measured_result("CCC(O)c1ccc2c(c1)N(C1CCN(CCc3ccc(F)cc3)CC1)CC2 (centres unmarked)")
8.23
>>> measured_result("OC(CCCN1CCC(N2CCc3ccccc32)CC1)c1ccc(F)cc1 (centres unmarked)")
8.14
>>> measured_result("CCC(=O)NCc1ccc(CCN2CCC(N3CCc4ccccc43)CC2)cc1")
8.05
>>> measured_result("CC(=O)NCCc1ccc2c(c1)N(C1CCN(CCc3ccc(F)cc3)CC1)CC2")
7.77
>>> measured_result("Fc1ccc(CCN2CCC(N3CCc4ccccc43)CC2)cc1")
7.94
>>> measured_result("CC(O)c1ccc(CCN2CCC(N3CCc4ccccc43)CC2)cc1 (centres unmarked)")
7.88
>>> measured_result("COc1ccc2c(c1)N(C1CCN(CCc3ccc(F)cc3)CC1)CC2")
8.19
>>> measured_result("CS(=O)(=O)c1ccc(CCN2CCC(N3CCc4ccccc43)CC2)cc1")
8.09

----------
# TARGET_OR_SYSTEM: serotonin 1A receptor (Rattus norvegicus, UniProt P19327)
# Sequence (P19327 1-422): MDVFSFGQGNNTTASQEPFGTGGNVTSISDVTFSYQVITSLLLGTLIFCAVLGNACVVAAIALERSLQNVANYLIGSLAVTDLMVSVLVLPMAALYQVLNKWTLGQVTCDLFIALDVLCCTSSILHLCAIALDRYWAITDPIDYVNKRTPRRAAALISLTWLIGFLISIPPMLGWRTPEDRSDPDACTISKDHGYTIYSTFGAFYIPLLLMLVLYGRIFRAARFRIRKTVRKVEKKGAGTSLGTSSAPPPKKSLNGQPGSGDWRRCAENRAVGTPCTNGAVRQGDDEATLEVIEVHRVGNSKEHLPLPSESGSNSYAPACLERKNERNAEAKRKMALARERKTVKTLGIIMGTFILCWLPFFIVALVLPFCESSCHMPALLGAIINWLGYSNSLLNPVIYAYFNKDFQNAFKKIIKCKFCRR
pKi: −log10 of the molar value.
# pKi per entry
ENDPOINT_NAME: pKi

>>> measured_result("CN(C)CCC(=O)NCc1ccc2ccn(C3CCN(CCc4ccc(F)cc4)CC3)c2c1 [Example 378]")
7.85
>>> measured_result("CS(=O)(=O)Nc1ccc2c(c1)N(C1CCN(CCc3ccc(F)cc3F)CC1)CC2 [Example 221]")
8.72
>>> measured_result("OCc1ccc(CCN2CCC(N3CCc4ccccc43)CC2)cc1CO [Example 45]")
7.82
>>> measured_result("CS(=O)(=O)NCc1ccc2c(c1)N(C1CCN(CCc3ccc(F)cc3)CC1)CC2 [Example 160]")
8.41
>>> measured_result("Clc1cccc(CCN2CCC(N3CCc4ccccc43)CC2)c1 [Example 5]")
8.00
>>> measured_result("Fc1ccc(CCN2CCC(N3CCc4ccc(Cl)nc43)CC2)cc1 [Example 259]")
9.22
>>> measured_result("Fc1cc(F)cc(CCN2CCC(N3CCc4ccccc43)CC2)c1 [Example 12]")
8.07
>>> measured_result("CC(c1ccc2c(c1)N(C1CCN(CCc3ccc(F)cc3)CC1)CC2)c1ccccn1 (stereo not drawn) [Example 182]")
8.37
>>> measured_result("Fc1ccc(CCCCN2CCC(N3CCc4ccccc43)CC2)cc1 [Example 15]")
7.54
>>> measured_result("CC(F)c1ccc2c(c1)N(C1CCN(CCc3ccc(F)cc3)CC1)CC2 (stereo not drawn) [Example 144]")
8.83
>>> measured_result("O=C(CCO)NCc1ccc2ccn(C3CCN(CCc4ccc(F)cc4)CC3)c2c1 [Example 369]")
8.69
>>> measured_result("Fc1ccc(CCCN2CCC(N3CCc4ccccc43)CC2)cc1 [Example 13]")
7.62
>>> measured_result("O=C(Cc1ccc2c(c1)N(C1CCN(CCc3ccc(F)cc3)CC1)CC2)N1CCCC1 [Example 155]")
7.83
>>> measured_result("O=C(CO)NCc1ccc2ccn(C3CCN(CCc4ccccc4F)CC3)c2c1 [Example 383]")
8.27
